Biological target: human tumor necrosis factor-α (R & D Co., Catalog Number: 210-TA-050) (human, UniProt P01375 77-233)
Sequence (P01375 77-233 limits assumed): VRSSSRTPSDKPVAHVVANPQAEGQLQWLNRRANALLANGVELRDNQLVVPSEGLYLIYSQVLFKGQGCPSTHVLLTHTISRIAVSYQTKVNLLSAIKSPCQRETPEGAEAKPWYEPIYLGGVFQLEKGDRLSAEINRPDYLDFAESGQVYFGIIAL
Experiment: cell-based or functional assay
Answer each item with its documented EC50, L929 cytotoxicity experiment.
Hi! Could you send only the number? It should be in nM, unit omitted.

Memo: KS10 (Glu) (antibody, V domains shown, Full-length IgG1 from CHO cells; VH SH01 with the first amino acid Glu, VK SH08) VH: EVQLVESGGGLVKPGGSLRLSCAASGFTFSNAWMNWVRQAPGKGLEWVAEIRSKSINSATHYAESVKGRFTISRDDSKNTVYLQMNSLKTEDTAVYYCSRNYYGSTYDYWGQGTTLTVSS VL: EIVLTQSPDFQSVTPKEKVTITCRASQSIYSSLHWYQQKPDQSPKLLIKFASQSVSGVPSRFSGSGSGTDFTLTINSLEAEDAATYYCQQSHWWPFTFGSGTNVDIKR , reported EC50, L929 cytotoxicity experiment: 0.028

Lab note: measured EC50, L929 cytotoxicity experiment of KS12 (antibody, human IgG1, kappa, V domains shown) VH: QVQLVESGGGLVKPGGSLRLSCAASGFTFSNAWMNWVRQAPGKGLEWVAEIRSKSINSATHYAESVKGRFTISRDNSKKTLYLEMNSLRVEDTAVYYCSRNYYGSTYDYWGQGTTLTVSS VL: EIVLTQSPDFQSVTPKEKVTITCRASQSIYSSLHWYQQKPDQSPKLLIKFASQSVSGVPSRFSGSGSGTDFTLTINSLEAEDAATYYCQQSHWWPFTFGSGTNVDIKR was 0.136
